Known IC50 of a selection of molecules
- tested-target: sigma-2 binding site (Cavia porcellus, UniProt H0V073)
- Construct: Guinea pig whole membrane preparations (P2 microsomal fraction); from tissue; host or cells: guinea pig membranes (P2 microsomal fraction), as described by Weber et al; brain inferred from the sister test b489
- Sequence (H0V073 1-176): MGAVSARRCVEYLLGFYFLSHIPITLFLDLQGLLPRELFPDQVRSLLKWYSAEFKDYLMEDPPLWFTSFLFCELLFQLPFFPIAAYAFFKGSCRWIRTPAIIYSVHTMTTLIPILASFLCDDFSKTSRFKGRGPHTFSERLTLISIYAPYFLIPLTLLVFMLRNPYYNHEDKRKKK
- method-notes: biochemical
- Set-up: species or system guinea pig
- setup-conditions: Table 18; read-out: IC50 (nM) at sigma-2
Entry rule: numbers only, all in nM.

Some entries whose results are on file:
• CN(CCCCCc1ccccc1)Cc1ccccc1 = 12
• c1ccc(CCCCCNCCc2ccccc2)cc1 = 15
• c1ccc(CCCCCNCc2ccccc2)cc1 = 34
• c1ccc(CCCCCNCCCCc2ccccc2)cc1 = 48

Input line: Which value of IC50 has been reported for c1ccc(CCCCCNCCCc2ccccc2)cc1 in the records?
Output line: 9.8

* * *

- tested-target: UniProt P19327
- method-notes: biochemical
- Format: binding
- Set-up: 47: 529-540 (1986); from tissue; host or cells: brain tissue, inferred from the cited method (rat frontal cortex)
- setup-conditions: Table 6; read-out: 5HT-1A (nM) MEAN
measured-quantity: log10 IC50 (log10 of the value in nM)
Values are log10 of IC50 in nM.

Consider the following illustrative entries.
- c1ccc(CCCCN2CCN(Cc3ccccc3)CC2)cc1: 2.24
- c1ccc(CNCCCCCC2CCCCC2)cc1: 3.74
- CN1CCN(CC/C=C\c2cccc(C(F)(F)F)c2)CC1: 3.70
- CCCN1CCN(c2ccccc2)CC1: 2.89
- CC(Cc1ccc(OCc2ccccc2)cc1)NCCCc1ccccc1 (stereo not drawn): 3.06
- CCOc1ccc(CC(C)NCCCc2ccccc2)cc1 (racemic): 1.89
- C[C@@H](Cc1ccccc1)N(C)CCCCCc1ccccc1: 2.95
- c1ccc(CCCCNCc2ccccc2)cc1: 2.41

Next up:
Input line: So what's the measured log10 IC50 for this one? COc1ccc(OC)c(CC(C)NCCCCc2ccccc2)c1 (stereo not drawn)
Output line: 2.26

* * *

Listing of entries alongside the reported IC50.
- tested-target: 5-HT1A receptor (Rattus norvegicus, UniProt P19327)
- Sequence (P19327 1-422): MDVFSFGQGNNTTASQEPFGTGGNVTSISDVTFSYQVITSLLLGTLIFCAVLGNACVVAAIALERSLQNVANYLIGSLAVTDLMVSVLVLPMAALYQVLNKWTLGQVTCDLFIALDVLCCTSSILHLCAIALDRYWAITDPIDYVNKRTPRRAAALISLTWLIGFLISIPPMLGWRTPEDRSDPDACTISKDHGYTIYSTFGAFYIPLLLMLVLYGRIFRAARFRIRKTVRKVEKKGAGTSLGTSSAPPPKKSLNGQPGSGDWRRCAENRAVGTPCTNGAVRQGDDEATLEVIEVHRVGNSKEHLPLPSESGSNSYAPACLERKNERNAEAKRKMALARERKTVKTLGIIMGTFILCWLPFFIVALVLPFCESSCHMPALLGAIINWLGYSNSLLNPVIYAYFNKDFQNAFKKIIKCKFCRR
- method-notes: biochemical
- Assay type: binding
- Set-up: 47: 529-540 (1986); from tissue; host or cells: brain tissue, inferred from the cited method (rat frontal cortex)
- setup-conditions: Table 5; read-out: 5-HT1A IC50
Numbers only; they are read as µM.

* C[C@H](Cc1ccccc1)NCCCc1cccc2ccccc12 [Compound 11] | 0.104
* OC1(c2ccccc2)CCN(CCCc2ccccc2)CC1 [Compound 40] | 2.96
* CC(NCCCc1ccccc1)C(=O)c1ccccc1 (centres unmarked) [Compound 13] | 0.288

Input line: Could you tell me which IC50 is on file for CC(Cc1ccccc1)NCC1CC1 (centres unmarked) [Compound 24] ?
Output line: 0.956

Input line: Look up IC50: C[C@@H](Cc1ccccc1)NCCCc1ccccc1 [Compound 43]
Output line: 1.11

Input line: I'd like to know its IC50. The molecule in question is c1ccc(CCCNC2CCc3ccccc3C2)cc1 (centres unmarked) [Compound 31]
Output line: 0.0193

Input line: I'd like to know its IC50. The molecule in question is FC(F)(F)c1cccc(N2CCN(CCCCc3ccccc3)CC2)c1 [Compound 47]
Output line: 0.00923

Input line: Consider the molecule shown here: CC(Cc1ccc2ccccc2c1)NCCCc1ccccc1 (centres unmarked) [Compound 18] What is its recorded IC50?
Output line: 0.588

* * *

- tested-target: sigma-1 binding site (Cavia porcellus)
- Construct: Guinea pig whole membrane preparations (P2 microsomal fraction); from tissue; host or cells: guinea pig membranes (P2 microsomal fraction), as described by Weber et al; brain inferred from the sister test b489
- method-notes: biochemical
- Set-up: species or system guinea pig
- setup-conditions: Table 14; read-out: IC50 (nM) at sigma-1
measured-quantity: IC50 (nM)
Please reply with the bare figure in nM and do not write the unit itself.

• c1ccc(CCCNCCc2ccccc2)cc1 = 11.3

Please examine the following record next.
Input line: Value lookup for IC50; key = CC(Cc1ccccc1)NCCCCc1ccccc1 (racemic)
Output line: 4.7

* * *

- tested-target: sigma-1 binding site (Cavia porcellus, UniProt Q60492)
- Construct: Guinea pig whole membrane preparations (P2 microsomal fraction); from tissue; host or cells: guinea pig membranes (P2 microsomal fraction), as described by Weber et al; brain inferred from the sister test b489
- Sequence (Q60492 whole entry): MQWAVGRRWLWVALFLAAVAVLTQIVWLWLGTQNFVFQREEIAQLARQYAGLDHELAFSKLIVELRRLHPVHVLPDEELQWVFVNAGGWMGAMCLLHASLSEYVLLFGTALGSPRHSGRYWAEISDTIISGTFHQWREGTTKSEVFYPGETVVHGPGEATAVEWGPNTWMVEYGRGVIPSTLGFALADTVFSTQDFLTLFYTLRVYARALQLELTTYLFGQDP
- method-notes: biochemical
- Design: species or system guinea pig
- setup-conditions: Table 10; read-out: SIGMA-1 KI vs. 3H-PENTAZOCINE MEAN
// map Ki to label using bottom bin (below 0.5 nM), middle bin (0.5 nM to below 10 nM), top bin (10 nM or more)

# example entries with known answers
- CN1CCN(CCCCc2ccccc2)CC1 [Compound 106, N-(4-phenyl)-N'-methylpiperazine]: top bin
- CCC(Cc1ccccc1)NCCCCc1ccccc1 (stereo not drawn) [Compound 101, N-(4-phenylbutyl)-1-phenyl-2-butylamine]: middle bin

Input line: Field: class (Ki) — entry: c1ccc(CCCCCNCCCc2ccccc2)cc1 [Compound 111, N-(5-phenylpentyl)-3-phenylpropylamine]
Output line: bottom bin

Input line: In plain terms, what class is c1ccc(CCCCCN2CCN(Cc3ccccc3)CC2)cc1 [Compound 129, N-Benzyl-N'-(5-phenylpentyl)-piperazine] ?
Output line: bottom bin

Input line: Using the reported Ki, which band applies to c1ccc(CCCCNCCc2ccccc2)cc1 [Compound 71, N-(4-phenylbutyl)phenethylamine] ?
Output line: middle bin

Input line: Quick check: band for c1ccc(CCCCCN2CCCCC2)cc1 [Compound 124, N-(5-phenylpentyl)piperidine]
Output line: bottom bin

* * *

- tested-target: sigma receptor
- method-notes: Sigma receptor binding, [^3 H]DTG, brain membranes (both sigma-1 and sigma-2 sites)
- Set-up: species or system guinea pig
measured-quantity: IC50

Input line: Given C[C@@H](Cc1ccccc1)N(CCCc1ccccc1)Cc1ccccc1 , state its recorded IC50.
Output line: 199 nM

* * *

- tested-target: sigma receptor
- method-notes: Sigma receptor binding, [^3 H]DTG, brain membranes (both sigma-1 and sigma-2 sites)
- Design: species or system guinea pig
- setup-conditions: Table 6; [^3 H]DTG
Returns the class for an entry based on its IC50. Class ranges: low: < 3 nM; medium: ≥ 3 nM and < 20 nM; high: ≥ 20 nM

- O=C(CCCCN1CC=C(c2ccc(Cl)cc2)CC1)c1ccc(Cl)cc1: medium
- COc1ccccc1N1CCN(CCCCN2C(=O)c3ccccc3C2=O)CC1: high
- COc1cccc(CCNCCCCCc2ccccc2)c1: low

Input line: Each molecule maps to one class by IC50. Which class for COc1ccccc1CCNCCCCCc1ccccc1 ?
Output line: medium

* * *

- tested-target: sigma receptor
- method-notes: Sigma receptor binding, [^3 H]DTG, brain membranes (both sigma-1 and sigma-2 sites)
- Set-up: species or system guinea pig
- setup-conditions: running text, Examples 5 and 6; listed as N-methyl-N-propyl-5-phenylpentylamine; read-out: sigma receptor Ki
measured-quantity: pKi
Please report pKi as the negative decimal logarithm of the molar concentration, giving only the number.

Input line: Recall the recorded pKi for CCCN(C)CCCCCc1ccccc1 with sigma receptor and state it.
Output line: 8.66

* * *

- tested-target: sigma-1 binding site (Cavia porcellus)
- Construct: Guinea pig whole membrane preparations (P2 microsomal fraction); from tissue; host or cells: guinea pig membranes (P2 microsomal fraction), as described by Weber et al; brain inferred from the sister test b489
- method-notes: biochemical
- Parameters: species or system guinea pig
- setup-conditions: Table 11; sigma-1/sigma-2
measured-quantity: S1/S2 Ratio
Output: the number by itself.

- CCCN1CCC[C@H](c2cccc(O)c2)C1 [(+)3-PPP, reference compound]: 0.097
- CC(C)N(CCNC(=O)CN1CCCC1=O)C(C)C [Pramiracetam, reference compound]: 1.000
- CCCN1CCC[C@@H](c2cccc(O)c2)C1 [(-)3-PPP, reference compound]: 0.248
- CN(C)CCCN1c2ccccc2Sc2ccc(Cl)cc21 [Chlorpromazine, reference compound]: 0.471
- OCCN1CCN(CCCN2c3ccccc3Sc3ccc(Cl)cc32)CC1 [Perphenazine, reference compound]: 0.312

With those in mind, consider the next compound.
Input line: What value of S1/S2 Ratio has been recorded for this entry: CN1CCN(CCCN2c3ccccc3Sc3ccc(C(F)(F)F)cc32)CC1 [Trifluperizine, reference compound]
Output line: 3.497
